Entries annotated with measured EC50
TESTED_ON: T1, human pIgR, full-length, on cells (human, UniProt P01833 19-764)
T1 construct: whole, on cells; Used for the flow cytometry EC50 values (MDCK-hpIgR) and for the transcytosis read-outs; also called hpIgR; cell-surface hpIgR
MEASUREMENT_PROTOCOL: flow cytometry on MDCK-hpIgR cells; summary table, repeats Table 1
Numbers only here, please. The scale is nM.

[
  {
    "BINDER": "VHH7-linker-mono-Fc protein (Fc fusion, made in CHO cells; also called VHH7-mono-Fc; hpIgR_198) EVQVVESGGGLVQAGGSLRLACVASRSIGSINVMGWYRQAPGKQRDLVARITGGGSTHYAESVKGRFTISRDNAKNTVYLQMNSLEPEDTAVYYCASMVNPIITAWGTIGVREIPDYDYWGQGTQVTVSSEPKTPKPQPQPQLQPQPNPTTESKSPKSPAPELLGGPSVFLFPPKPKDTLMISRTPEVTCVVVDVSHEDPEVKFNWYVDGVEVHNAKTKPREEQYNSTYRVVSVLTVLHQDWLNGKEYKCKVSNKALPAPIEKTISKAKGQPREPQVYTKPPSREEMTKNQVSLSCLVKGFYPSDIAVEWESNGQPENNYKTTVPVLDSDGSFRLASYLTVDKSRWQQGNVFSCSVMHEALHNHYTQKSLSLSPGK",
    "EC50 (nM)": 36.4
  }
]

Please turn your attention to the following entry.
I'd like to know its EC50. The binder in question is VHH2-linker-mono-Fc protein (Fc fusion, also called VHH2-mono-Fc; mpIgR_338) EVQVVESGGGLVQAGGSLKLACAAPGLTFSSYRMGWFRQAPGQEREFVAAIDWNGRGTYYRYYADSVKGRSTISRDNAKNTVYLQMNSLKPEDTAVYYCAATTVLTDPRVLNEYATWGQGTQVTVSSEPKTPKPQPQPQLQPQPNPTTESKSPKSPAPELLGGPSVFLFPPKPKDTLMISRTPEVTCVVVDVSHEDPEVKFNWYVDGVEVHNAKTKPREEQYNSTYRVVSVLTVLHQDWLNGKEYKCKVSNKALPAPIEKTISKAKGQPREPQVYTKPPSREEMTKNQVSLSCLVKGFYPSDIAVEWESNGQPENNYKTTVPVLDSDGSFRLASYLTVDKSRWQQGNVFSCSVMHEALHNHYTQKSLSLSPGK
6.3

Values from patent US20220324970A1
